Test system: Interleukin 1 (IL-1) production by peritoneal macrophages
Protocol Text: IL-1 Assay: production of interleukin-1 by peritoneal macrophages (thymocyte bioassay)
Assay type: cell-based, mouse (C57B1/6)
Condition Notes: Mus musculus, Peritoneal macrophage; 25 ug/ml; read-out: % effect on IL-1 production (thymidine uptake by thymocytes)
Readout Type: inhibition at 25 µg/mL (%)
Numbers only, in %.

CCCCCCCOCCCO[C@@H]1[C@H]2OC(C)(C)O[C@H]2O[C@@H]1[C@H](O)CO | 57
CCCCCC#CCOC[C@H]1O[C@@]2(OC)COC(C)(C)O[C@H]2[C@@H]1OCC#CCCCCC | 71

// each compound listed below needs its inhibition at 25 µg/mL
1. CC1(C)OC2OC(C(O)COCCCc3ccccc3)C(O)C2O1 (stereo not drawn)
2. CCCCCCCOC[C@H]1O[C@@]2(OC)COC(C)(C)O[C@H]2[C@@H]1O
3. CN1CCCC1CCNC[C@H]1OC(C)(C)O[C@@H]2[C@H]3OC(C)(C)O[C@H]3O[C@@H]21 (stereo partly drawn)
4. CCCCC/C=C/COC[C@H]1O[C@@]2(OC)COC(C)(C)O[C@H]2[C@@H]1OC/C=C/CCCCC

Reply |
[76, 63, 34, 40]

* * *

System: T lymphocytes (normal mouse spleen cells) stimulated with ConA
Protocol Text: Mouse Spleen Cell ConA Blastogenesis Assay
Type: cell-based, mouse (C57Bl/6)
Condition Notes: Mus musculus, T-lymphocyte, ConA 4 ug/ml; compound 0.1 ug/ml; read-out: % change from control, ConA blastogenic response
Method: It is well known that several plant lectins, when cultured in vitro with lymphocytes, stimulate cellular activation and proliferation. Concanavolin, (ConA) selectively stimulates the blastogenic response of T lymphocytes. […] Cultures were incubated for 3 days at 37° C. in a humidified atmosphere of 5% of CO2 in air. […] The amount of ^3 H-thymidine incorporated by the cultures, as a measure of cell proliferation, was measured in a liquid scintillation counter. […]
Exercise: state measured inhibition at 0.1 µg/mL for each of the compounds provided.
Numbers only, in %.

Study these solved cases before continuing.
CCCCCCCOC[C@H]1O[C@](COCC)(OC)[C@@H](OCC)[C@@H]1O | 45
CCCCCCCOC[C@H]1O[C@@]2(OC)COC(C)(C)O[C@H]2[C@@H]1O | -5
CCCCCC#CCOC[C@H]1O[C@@]2(OC)COC(C)(C)O[C@H]2[C@@H]1OCC#CCCCCC | 27

Now for a further compound.
Ask | Return inhibition at 0.1 µg/mL for the following compound: CCCCCCCC(=O)OC[C@H]1O[C@@]2(OC)COC(C)(C)O[C@H]2[C@@H]1OC(=O)CCCCCCC
Reply | 12

* * *

Test system: T lymphocytes (normal mouse spleen cells) stimulated with ConA
Protocol Text: Mouse Spleen Cell ConA Blastogenesis Assay
Format: cell-based, mouse (C57Bl/6)
Condition Notes: Mus musculus, T-lymphocyte, ConA 1 ug/ml; compound 25 ug/ml; read-out: % change from control, ConA blastogenic response
Readout Type: inhibition at 25 µg/mL (%)
Numbers only, in %.

Study these solved cases before continuing.
CC1(C)OCC(C2OC3OC(C)(C)OC3C2NCCCO)O1 (centres unmarked) | 45
Cc1cn([C@H]2C[C@H](N=[N+]=[N-])[C@@H](CO)O2)c(=O)[nH]c1=O [AZT, reference compound] | 99
CCCCCCCOCCCO[C@@H]1[C@H]2OC(C)(C)O[C@H]2O[C@@H]1[C@H](O)CO | -51
CCCCC/C=C/COC[C@H]1O[C@@]2(OC)COC(C)(C)O[C@H]2[C@@H]1OC/C=C/CCCCC | 99

Ask | Return inhibition at 25 µg/mL for the following compound: CCCCCCCO[C@@H]1[C@@H](CO)O[C@@]2(OC)COC(C)(C)O[C@@H]12
Reply | 99
